# System: HSV-1
# assay_procedure: HSV-1 replication in infected Vero 76 cells, viral DNA hybridization capture assay
# Assay type: cell-based
# measurement_parameters: Human alphaherpesvirus 1, Vero 76, HSV-1, Vero 76 cells, MOI=0.001, 40–48 hours incubation
Structures can show the parent of a compound that is named as a salt.

| compound | system_name | unit_descriptor | reading_qualifier | IC50 |
| --- | --- | --- | --- | --- |
| Fc1ccc(-c2nn3c(Cl)cccc3c2-c2ccnc(NC3CC3)n2)cc1 | HSV-1 | µM | > | 20 |
| CCCCNc1cccc2c(-c3ccnc(N4CCN(CCOC)CC4)n3)c(-c3ccc(F)cc3)nn12 | HSV-1 | µM | = | 10 |
| O=C(NC1CCCC1)c1cc(-c2c(-c3ccc(F)cc3)nn3c(Cl)cccc23)nc(NC2CCCC2)n1 | HSV-1 | µM | > | 20 |
| CN(C)c1nccc(-c2c(-c3ccc(F)cc3)nn3c(NC4CCCC4)cccc23)n1 | HSV-1 | µM | = | 1 |
| Nc1cccc2c(-c3ccnc(NC4CCCC4)n3)c(-c3ccc(F)cc3)nn12 | HSV-1 | µM | = | 1 |
| CN(C)c1nccc(-c2c(-c3ccc(F)cc3)nn3c(N4CCCC4)cccc23)n1 | HSV-1 | µM | = | 5 |
| CCCCNc1cccc2c(-c3ccnc(NCCCn4ccnc4)n3)c(-c3ccc(F)cc3)nn12 | HSV-1 | µM | = | 4 |
| Fc1ccc(-c2nn3c(N4CCCC4)cccc3c2-c2ccnc(N3CCCC3)n2)cc1 | HSV-1 | µM | = | 4.2 |
| CCCCNc1nccc(-c2c(-c3ccc(F)cc3)nn3c(N4CCOCC4)cccc23)n1 | HSV-1 | µM | = | 0.8 |
| CN(C)Cc1cc(-c2c(-c3ccc(F)cc3)nn3c(Cl)cccc23)nc(NC2CCCC2)n1 | HSV-1 | µM | = | 5 |
| CCCCNc1cccc2c(-c3ccnc(N4CCCC4)n3)c(-c3ccc(F)cc3)nn12 | HSV-1 | µM | = | 5 |
| Fc1ccc(-c2nn3c(NC4CCCC4)cccc3c2-c2ccncc2)cc1 | HSV-1 | µM | = | 2 |
| C=CCNc1nccc(-c2c(-c3ccc(F)cc3)nn3c(NCCCC)cccc23)n1 | HSV-1 | µM | = | 1 |
| Fc1ccc(-c2nn3c(NC4CCCC4)cccc3c2-c2cc(COC3CCCCO3)nc(NC3CCCC3)n2)cc1 (stereo not shown) | HSV-1 | µM | = | 40 |
| CN1CCN(c2cccc3c(-c4cc(-c5ccccc5)nc(NC5CCCC5)n4)c(-c4ccc(F)cc4)nn23)CC1 [Example 19, hydrochloride] | HSV-1 | µM | = | 2.5 |
| COc1ccc(Nc2cccc3c(-c4ccnc(NC5CCCC5)n4)c(-c4ccc(F)cc4)nn23)cc1 | HSV-1 | µM | = | 1 |

---

# Test system: HSV-1
# assay_procedure: HSV-1 replication in infected Vero 76 cells, viral DNA hybridization capture assay
# Assay type: cell-based
# measurement_parameters: Human alphaherpesvirus 1, Vero 76, HSV-1, Vero 76 cells, MOI=0.001, 40–48 hours incubation
pIC50: −log10 of the molar value.
Class true (1): pIC50 at least 6. Class false (0): pIC50 below 6.

| compound | system_name | discrete_label |
| --- | --- | --- |
| CNc1cccc2c(-c3ccncc3)c(-c3ccc(F)cc3)nn12 [Example 58] | HSV-1 | false (0) |
| Fc1ccc(-c2nn3c(NC4CCCC4)cccc3c2-c2ccnc(NC3CCCC3)n2)cc1 [Example 1] | HSV-1 | true (1) |
| CCCCNc1cccc2c(-c3ccnc(NC4CCCC4)n3)c(-c3ccc(F)cc3)nn12 [Example 6] | HSV-1 | true (1) |
| OCc1cc(-c2c(-c3ccc(F)cc3)nn3c(Cl)cccc23)nc(NC2CCCC2)n1 [Example 17] | HSV-1 | false (0) |
| CN(CC(=O)O)c1nccc(-c2c(-c3ccc(F)cc3)nn3c(NC4CCCC4)cccc23)n1 [Example 18] | HSV-1 | false (0) |
| CC(C)c1nccc(-c2c(-c3ccc(F)cc3)nn3c(Cl)cccc23)n1 [Example 77] | HSV-1 | false (0) |
| CCCCNc1cccc2c(-c3ccnc(NCc4ccccn4)n3)c(-c3ccc(F)cc3)nn12 [Example 43] | HSV-1 | false (0) |
| CCCCNc1nccc(-c2c(-c3ccc(F)cc3)nn3c(NCCN4CCOCC4)cccc23)n1 [Example 47] | HSV-1 | true (1) |

---

# Tested on: HSV-1
# assay_procedure: HSV-1 replication in infected Vero 76 cells, viral DNA hybridization capture assay
# Type: cell-based
# measurement_parameters: Human alphaherpesvirus 1, Vero 76, HSV-1, Vero 76 cells, MOI=0.001, 40–48 hours incubation
log10(IC50) reference
experimental_endpoint: log10(IC50) (log10 of the value in µM)

| test_smiles | system_name | log10(IC50) |
| --- | --- | --- |
| Fc1ccc(-c2nn3c(Cl)cccc3c2-c2ccnc(NC3CCCC3)n2)cc1 | HSV-1 | 0.18 |
| O=C(O)c1cc(-c2c(-c3ccc(F)cc3)nn3c(Cl)cccc23)nc(NC2CCCC2)n1 | HSV-1 | 0.11 |
| Cc1cc(-c2c(-c3ccc(F)cc3)nn3c(NN)cccc23)nc(NC2CCCC2)n1 | HSV-1 | 0.70 |
| CCCCNc1cccc2c(-c3ccnc(N4CCN(CCO)CC4)n3)c(-c3ccc(F)cc3)nn12 | HSV-1 | 0.78 |
| NNc1cc(-c2c(-c3ccc(F)cc3)nn3c(NC4CCCC4)cccc23)ccn1 | HSV-1 | 0.70 |
| CCCCNc1cccc2c(-c3ccnc(NC4CCCC4)n3)c(-c3ccc(Br)cc3)nn12 | HSV-1 | 0.70 |
| CCN(CC)c1cccc2c(-c3ccncc3)c(-c3ccc(F)cc3)nn12 | HSV-1 | 0.60 |
| NCCNc1cccc2c(-c3cc(-c4ccccc4)nc(NC4CCCC4)n3)c(-c3ccc(F)cc3)nn12 | HSV-1 | 0.48 |
| OCc1cc(-c2c(-c3ccc(F)cc3)nn3c(NC4CCCC4)cccc23)nc(NC2CCCC2)n1 | HSV-1 | 0.70 |
| CCCCNc1cccc2c(-c3ccnc(N4CCCC4)n3)c(-c3ccc(Br)cc3)nn12 | HSV-1 | 0.90 |
| Fc1ccc(-c2nn3c(N4CCCC4)cccc3c2-c2ccnc(NC3CCCC3)n2)cc1 | HSV-1 | 0.00 |
| CCCCNc1cccc2c(-c3ccnc(OCCN4CCOCC4)n3)c(-c3ccc(F)cc3)nn12 | HSV-1 | 0.85 |
| CCCCNc1nccc(-c2c(-c3ccc(F)cc3)nn3c(NCCCC)cccc23)n1 | HSV-1 | -0.30 |
| CCCCNc1nccc(-c2c(-c3ccc(F)cc3)nn3c(NC)cccc23)n1 | HSV-1 | 0.08 |
| COC(=O)CNc1cccc2c(-c3cc(C)nc(NC4CCCC4)n3)c(-c3ccc(F)cc3)nn12 | HSV-1 | 1.00 |

---

# Test system: HSV-1
# assay_procedure: HSV-1 replication in infected Vero 76 cells, viral DNA hybridization capture assay
# Type: cell-based
# measurement_parameters: Human alphaherpesvirus 1, Vero 76, HSV-1, Vero 76 cells, MOI=0.001, 40–48 hours incubation
pIC50: −log10 of the molar value.
pIC50 reference

| molecule | pIC50 |
| --- | --- |
| CCCCNc1cccc2c(-c3ccnc(NCCN4CCOCC4)n3)c(-c3ccc(F)cc3)nn12 [Example 45] | 5.30 |
| CCCCNc1cccc2c(-c3ccnc([S+](C)[O-])n3)c(-c3ccc(F)cc3)nn12 (centres unmarked) [Example 37] | 4.82 |
| Cc1cc(-c2c(-c3ccc(F)cc3)nn3c(N4CCN(C)CC4)cccc23)nc(NC2CCCC2)n1 [Example 15] | 5.30 |
| C=CCNc1cccc2c(-c3ccnc(NCCCC)n3)c(-c3ccc(F)cc3)nn12 [Example 54] | 6.30 |
| CCCCNc1cccc2c(-c3ccnc(NCCCO)n3)c(-c3ccc(F)cc3)nn12 [Example 38] | 5.30 |
| Cc1cc(-c2c(-c3ccc(F)cc3)nn3c(Cl)cccc23)nc(NC2CCCC2)n1 [Example 7] | 5.41 |
| Fc1ccc(-c2nn3c(NC4CCCC4)cccc3c2-c2ccnc(NC3CCCC3)c2)cc1 [Example 29] | 6.52 |
| CCCCNc1cccc2c(-c3ccnc(N4CCOCC4)n3)c(-c3ccc(F)cc3)nn12 [Example 40] | 4.82 |

---

# Tested on: HSV-1
# assay_procedure: HSV-1 replication in infected Vero 76 cells, viral DNA hybridization capture assay
# Format: cell-based
# measurement_parameters: Human alphaherpesvirus 1, Vero 76, HSV-1, Vero 76 cells, MOI=0.001, 40–48 hours incubation
IC50 reference
experimental_endpoint: IC50 (µM)

| test_smiles | experimental_endpoint | reading_qualifier | value_reported |
| --- | --- | --- | --- |
| Cc1cc(-c2c(-c3ccc(F)cc3)nn3c(NCC(=O)O)cccc23)nc(NC2CCCC2)n1 | IC50 | = | 15 |
| CCCCNc1cccc2c(-c3ccnc(OCC(F)(F)F)n3)c(-c3ccc(F)cc3)nn12 | IC50 | > | 20 |
| CN(C)Cc1cc(-c2c(-c3ccc(F)cc3)nn3c(NC4CCCC4)cccc23)nc(NC2CCCC2)n1 | IC50 | = | 5 |
| Fc1ccc(-c2nn3c(NC4CCCC4)cccc3c2-c2cc(NC3CCCC3)ncn2)cc1 | IC50 | = | 1.3 |
| Fc1ccc(-c2nn3c(Cl)cccc3c2-c2ccnc(C3CC3)n2)cc1 | IC50 | > | 20 |

The values you see were collected from patent US7163940B2.
